Test system: MDA-MB-468 complex spheroids with HUVEC/MSC, viability
Protocol Summary: Anticancer human tumor MDA-MB-468 cell line growth inhibition;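 note: spheroids exposed to agents for seven days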
Test Parameters: curve of first compound; second compound 3.16 µM
Readout Kind: IC50 (nM)
# output: bare number, implied unit nM

# annotated cases, reported IC50 shown
Tell me measured IC50 for O=C(c1cc(Cc2n[nH]c(=O)c3ccccc23)ccc1F)N1CCN(C(=O)C2CC2)CC1 + NC1CCC(NC2CC2c2ccccc2)CC1 please.
909

Tell me measured IC50 for COc1cc(C2c3cc4c(cc3C(OC3OC5COC(C)OC5C(O)C3O)C3COC(=O)C23)OCO4)cc(OC)c1O (configuration not stated) + NC1CCC(NC2CC2c2ccccc2)CC1 please.
76.6

Turning to the following compound.
Tell me measured IC50 for COc1ccc([C@@H](O)c2cc(-c3ncnc4cc(N5CCOCC5)ccc34)c(F)cc2Cl)nn1 + NC1CCC(NC2CC2c2ccccc2)CC1 please.
832

---

Tested on: MDA-MB-468 complex spheroids with HUVEC/MSC, viability
Protocol Summary: Anticancer human tumor MDA-MB-468 cell line growth inhibition;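 note: spheroids exposed to agents for seven days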;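 for viability, T/C: 100% = DMSO vehicle control viability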
Test Parameters: second compound 10 µM; first compound 3.16 µM; stronger effect = lower value
Readout Kind: viability, T/C

# annotated cases, reported viability, T/C shown
Tell me measured viability, T/C for CC1COCCN1c1cc(C2(S(C)(=N)=O)CC2)nc(-c2ccnc3[nH]ccc23)n1 (centres undefined) + NC1CC1c1ccc(-c2cccc(O)c2)cc1 please.
15.8%

Tell me measured viability, T/C for COc1ccc([C@@H](O)c2cc(-c3ncnc4cc(N5CCOCC5)ccc34)c(F)cc2Cl)nn1 + NC1CCC(NC2CC2c2ccccc2)CC1 please.
35.2%

Tell me measured viability, T/C for COc1ccc([C@@H](O)c2cc(-c3ncnc4cc(N5CCOCC5)ccc34)c(F)cc2Cl)nn1 + NC1CC1c1ccc(-c2cccc(O)c2)cc1 please.
20.1%

Turning to the following compound.
Tell me measured viability, T/C for O=C(c1cc(Cc2n[nH]c(=O)c3ccccc23)ccc1F)N1CCN(C(=O)C2CC2)CC1 + NC1CCC(NC2CC2c2ccccc2)CC1 please.
23.6%

---

viability, T/C: recorded values
Test system: MDA-MB-468 complex spheroids with HUVEC/MSC, viability
Protocol Summary: Anticancer human tumor MDA-MB-468 cell line growth inhibition;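 note: spheroids exposed to agents for seven days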;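 for viability, T/C: 100% = DMSO vehicle control viability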
Test Parameters: second compound 0.316 µM; first compound 0.1 µM; stronger effect = lower value

# annotated cases, reported viability, T/C shown
Tell me measured viability, T/C for CC1COCCN1c1cc(C2(S(C)(=N)=O)CC2)nc(-c2ccnc3[nH]ccc23)n1 (configuration not stated) + NC1CCC(NC2CC2c2ccccc2)CC1 please.
72.2%

Tell me measured viability, T/C for CC[C@@]1(O)C(=O)OCc2c1cc1n(c2=O)Cc2cc3c(CN(C)C)c(O)ccc3nc2-1 + NC1CCC(NC2CC2c2ccccc2)CC1 please.
4.68%

Tell me measured viability, T/C for COc1ccc([C@@H](O)c2cc(-c3ncnc4cc(N5CCOCC5)ccc34)c(F)cc2Cl)nn1 + NC1CC1c1ccc(-c2cccc(O)c2)cc1 please.
82.3%

New cases:
Tell me measured viability, T/C for COc1cc(Nc2ncc3c(n2)-c2ccc(Cl)cc2C(c2c(F)cccc2OC)=NC3)ccc1C(=O)O + NC1CC1c1ccc(-c2cccc(O)c2)cc1 please.
5.06%

Tell me measured viability, T/C for O=C(C=Cn1cnc(-c2cc(C(F)(F)F)cc(C(F)(F)F)c2)n1)NNc1cnccn1 + NC1CCC(NC2CC2c2ccccc2)CC1 please.
2.83%

Tell me measured viability, T/C for Cn1ncnc1C1c2n[nH]c(=O)c3cc(F)cc(c23)NC1c1ccc(F)cc1 (configuration not stated) + NC1CC1c1ccc(-c2cccc(O)c2)cc1 please.
46%

Tell me measured viability, T/C for Cn1ncnc1C1c2n[nH]c(=O)c3cc(F)cc(c23)NC1c1ccc(F)cc1 (configuration not stated) + NC1CCC(NC2CC2c2ccccc2)CC1 please.
49.5%

---

Tested on: MDA-MB-468 complex spheroids with HUVEC/MSC, viability
Protocol Summary: Anticancer human tumor MDA-MB-468 cell line growth inhibition; active = viability on the fitted dose curve at most 10% of control; inactive = the rest;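 note: spheroids exposed to agents for seven days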
Test Parameters: second compound 0.316 µM; first compound 1 µM
Hi! Could you answer with just one of these? true (1) (active), false (0) (inactive)

Look over these answered cases.
Call for entry Nc1ncn(C2CC(O)C(CO)O2)c(=O)n1 (stereo not drawn) + NC1CCC(NC2CC2c2ccccc2)CC1 :
true (1)

Call for entry CC(C)c1c(-c2ccccc2)nc2c(C#N)c[nH]n2c1=O + NC1CC1c1ccc(-c2cccc(O)c2)cc1 :
false (0)

Call for entry O=C(C=Cn1cnc(-c2cc(C(F)(F)F)cc(C(F)(F)F)c2)n1)NNc1cnccn1 + NC1CCC(NC2CC2c2ccccc2)CC1 :
true (1)

New cases:
Call for entry CC1COCCN1c1cc(C2(S(C)(=N)=O)CC2)nc(-c2ccnc3[nH]ccc23)n1 (stereo not drawn) + NC1CCC(NC2CC2c2ccccc2)CC1 :
false (0)

Call for entry CC(C)c1c(-c2ccccc2)nc2c(C#N)c[nH]n2c1=O + NC1CCC(NC2CC2c2ccccc2)CC1 :
false (0)

Call for entry CC1COCCN1c1cc(-c2ccnn2C)c2ccnc(-c3ccn[nH]3)c2n1 (stereo not drawn) + NC1CCC(NC2CC2c2ccccc2)CC1 :
false (0)

Call for entry O=C(c1cc(Cc2n[nH]c(=O)c3ccccc23)ccc1F)N1CCN(C(=O)C2CC2)CC1 + NC1CCC(NC2CC2c2ccccc2)CC1 :
false (0)

Call for entry O=C(c1cc(Cc2n[nH]c(=O)c3ccccc23)ccc1F)N1CCN(C(=O)C2CC2)CC1 + NC1CC1c1ccc(-c2cccc(O)c2)cc1 :
false (0)

Call for entry COc1ccc([C@@H](O)c2cc(-c3ncnc4cc(N5CCOCC5)ccc34)c(F)cc2Cl)nn1 + NC1CCC(NC2CC2c2ccccc2)CC1 :
false (0)

Call for entry O=C(C=Cn1cnc(-c2cc(C(F)(F)F)cc(C(F)(F)F)c2)n1)NNc1cnccn1 + NC1CC1c1ccc(-c2cccc(O)c2)cc1 :
true (1)

Call for entry COc1ccc([C@@H](O)c2cc(-c3ncnc4cc(N5CCOCC5)ccc34)c(F)cc2Cl)nn1 + NC1CC1c1ccc(-c2cccc(O)c2)cc1 :
false (0)

Call for entry COc1cc(Nc2ncc3c(n2)-c2ccc(Cl)cc2C(c2c(F)cccc2OC)=NC3)ccc1C(=O)O + NC1CCC(NC2CC2c2ccccc2)CC1 :
true (1)

Call for entry CC1(C)CCC(CN2CCN(c3ccc(C(=O)NS(=O)(=O)c4ccc(NCC5CCOCC5)c([N+](=O)[O-])c4)c(Oc4cnc5[nH]ccc5c4)c3)CC2)=C(c2ccc(Cl)cc2)C1 + NC1CC1c1ccc(-c2cccc(O)c2)cc1 :
false (0)

Call for entry COc1cc(Nc2ncc3c(n2)-c2ccc(Cl)cc2C(c2c(F)cccc2OC)=NC3)ccc1C(=O)O + NC1CC1c1ccc(-c2cccc(O)c2)cc1 :
true (1)

Call for entry CC1(C)CCC(CN2CCN(c3ccc(C(=O)NS(=O)(=O)c4ccc(NCC5CCOCC5)c([N+](=O)[O-])c4)c(Oc4cnc5[nH]ccc5c4)c3)CC2)=C(c2ccc(Cl)cc2)C1 + NC1CCC(NC2CC2c2ccccc2)CC1 :
false (0)

Call for entry CC1COCCN1c1cc(C2(S(C)(=N)=O)CC2)nc(-c2ccnc3[nH]ccc23)n1 (stereo not drawn) + NC1CC1c1ccc(-c2cccc(O)c2)cc1 :
false (0)

Call for entry Nc1ncn(C2CC(O)C(CO)O2)c(=O)n1 (stereo not drawn) + NC1CC1c1ccc(-c2cccc(O)c2)cc1 :
true (1)

Call for entry CC1COCCN1c1cc(-c2ccnn2C)c2ccnc(-c3ccn[nH]3)c2n1 (stereo not drawn) + NC1CC1c1ccc(-c2cccc(O)c2)cc1 :
true (1)

---

Test system: MDA-MB-468 complex spheroids with HUVEC/MSC, viability
Protocol Summary: Anticancer human tumor MDA-MB-468 cell line growth inhibition;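 note: spheroids exposed to agents for seven days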;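 for viability, T/C: 100% = DMSO vehicle control viability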
Test Parameters: second compound 10 µM; first compound 3.16 µM; stronger effect = lower value
viability, T/C: recorded values
# output: bare number, implied unit %

# annotated cases, reported viability, T/C shown
Tell me measured viability, T/C for CC1(C)CCC(CN2CCN(c3ccc(C(=O)NS(=O)(=O)c4ccc(NCC5CCOCC5)c([N+](=O)[O-])c4)c(Oc4cnc5[nH]ccc5c4)c3)CC2)=C(c2ccc(Cl)cc2)C1 + NC1CC1c1ccc(-c2cccc(O)c2)cc1 please.
16.8

Tell me measured viability, T/C for CC(C)c1c(-c2ccccc2)nc2c(C#N)c[nH]n2c1=O + NC1CC1c1ccc(-c2cccc(O)c2)cc1 please.
67.1

Tell me measured viability, T/C for CC1COCCN1c1cc(C2(S(C)(=N)=O)CC2)nc(-c2ccnc3[nH]ccc23)n1 (stereo unspecified) + NC1CCC(NC2CC2c2ccccc2)CC1 please.
21.1

Tell me measured viability, T/C for CC1(C)CCC(CN2CCN(c3ccc(C(=O)NS(=O)(=O)c4ccc(NCC5CCOCC5)c([N+](=O)[O-])c4)c(Oc4cnc5[nH]ccc5c4)c3)CC2)=C(c2ccc(Cl)cc2)C1 + NC1CCC(NC2CC2c2ccccc2)CC1 please.
58.1

New cases:
Tell me measured viability, T/C for CC(C)c1c(-c2ccccc2)nc2c(C#N)c[nH]n2c1=O + NC1CCC(NC2CC2c2ccccc2)CC1 please.
66

Tell me measured viability, T/C for O=C(c1cc(Cc2n[nH]c(=O)c3ccccc23)ccc1F)N1CCN(C(=O)C2CC2)CC1 + NC1CC1c1ccc(-c2cccc(O)c2)cc1 please.
13.8
